Test system: Kidney
Assay: Biodistribution in Sprague-Dawley rat kidney at 14.8 to 18.5 MBq, iv measured at 5 mins post-injection by gamma counting analysis
Type: ADME, organism-based
Details: in vivo
measured.metric: Drug uptake

// below: answered molecules
molecular.string | Drug uptake
Cn1cc(-c2ccncc2)c(-c2ccc(OCc3nc4ccccc4cc3O[11CH3])cc2)n1 | 4.354 % ID/g
Cn1cc(-c2ccncc2)c(-c2ccc(OCc3ccc4cc(O[11CH3])ccc4n3)cc2)n1 | 1.333 % ID/g
Cn1ncc(-c2ccncc2)c1-c1ccc(OCc2cc(O[11CH3])c3ccccc3n2)cc1 | 1.744 % ID/g

Consider now this further molecule.
Readout Drug uptake for Cn1cc(-c2ccncc2)c(-c2ccc(OCc3cc(O[11CH3])c4ccccc4n3)cc2)n1 , test system Kidney, was 2.34 % ID/g
